# target.or.test.system: BLMHM (BLM helicase module) (Homo sapiens, UniProt P54132 642-1290)
# Sequence (P54132 642-1290): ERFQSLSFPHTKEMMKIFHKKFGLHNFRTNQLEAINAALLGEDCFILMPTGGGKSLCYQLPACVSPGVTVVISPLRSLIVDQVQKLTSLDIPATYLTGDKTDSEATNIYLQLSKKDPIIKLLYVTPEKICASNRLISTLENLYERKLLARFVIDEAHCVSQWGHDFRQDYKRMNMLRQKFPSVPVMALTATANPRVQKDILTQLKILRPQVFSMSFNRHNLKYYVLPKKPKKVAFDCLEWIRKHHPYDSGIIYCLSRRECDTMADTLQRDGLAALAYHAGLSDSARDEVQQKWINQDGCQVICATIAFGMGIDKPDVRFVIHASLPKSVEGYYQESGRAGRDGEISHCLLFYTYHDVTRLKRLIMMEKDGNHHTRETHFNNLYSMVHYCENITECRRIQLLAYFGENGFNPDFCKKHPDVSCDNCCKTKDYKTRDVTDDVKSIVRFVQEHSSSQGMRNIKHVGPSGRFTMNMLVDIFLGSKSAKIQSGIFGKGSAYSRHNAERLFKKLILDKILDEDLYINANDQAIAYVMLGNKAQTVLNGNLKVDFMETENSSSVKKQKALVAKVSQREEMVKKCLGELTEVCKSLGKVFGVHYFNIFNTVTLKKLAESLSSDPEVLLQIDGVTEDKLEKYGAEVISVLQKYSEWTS
# test.description: fluorescence titration
measure.name: Kd (nM)
Numbers only; they are read as nM.

Ask | Please look up its Kd: DNA_2 (5'-HEX-DNA_54mer) (ssDNA) DNA: CGTTGCGCAATTAAGCTCTAAGCCATCCGCAAAAATGACCTCTTATCAAAAGGA
Reply | 100

Provenance of the data: paper PMC2910040
